half-life values, listed per item
procedure-text: Pharmacokinetics in mice (plasma, brain, CSF)
Type: in vivo
condition-info: C57BL/6N ('9087, '7075, '4622), CD-1 (PS75), mouse, CSF, ip, I.P. 10 mg/kg, read-out: T ½ CSF (converted)
Structures can show the parent of a compound that is named as a salt.
quantity: half-life

compound: C1=C(c2ccc3c(c2)CC3)CNCC1 [Compound 4622]
value-observed: 14.5 h

compound: Fc1cccc2c(Nc3ccncc3)cccc12 [Compound 7075]
value-observed: 0.22 h

compound: Clc1ccc2cccc(Nc3ccncc3)c2c1 [PS75, TFA]
value-observed: 2.55 h

Every entry's value here was drawn from patent US20250032476A1.
